Biological target: Neuronal acetylcholine receptor; alpha4/beta2 (Homo sapiens, UniProt P17787+P43681)
Sequence (P17787 whole entry): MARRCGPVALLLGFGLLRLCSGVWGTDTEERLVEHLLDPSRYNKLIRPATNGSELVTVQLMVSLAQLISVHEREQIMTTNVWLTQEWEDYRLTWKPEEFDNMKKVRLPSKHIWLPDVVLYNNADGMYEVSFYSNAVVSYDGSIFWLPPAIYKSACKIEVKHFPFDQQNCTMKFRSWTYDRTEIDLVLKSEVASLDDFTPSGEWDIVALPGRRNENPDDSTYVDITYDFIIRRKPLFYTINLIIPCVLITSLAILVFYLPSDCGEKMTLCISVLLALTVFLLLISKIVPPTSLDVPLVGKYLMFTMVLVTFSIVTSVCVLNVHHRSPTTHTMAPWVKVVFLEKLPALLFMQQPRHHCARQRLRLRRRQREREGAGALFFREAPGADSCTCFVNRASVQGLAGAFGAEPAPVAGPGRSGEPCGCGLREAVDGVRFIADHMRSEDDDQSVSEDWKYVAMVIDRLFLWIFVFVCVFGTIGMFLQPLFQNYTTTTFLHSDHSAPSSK
Sequence (P43681 whole entry): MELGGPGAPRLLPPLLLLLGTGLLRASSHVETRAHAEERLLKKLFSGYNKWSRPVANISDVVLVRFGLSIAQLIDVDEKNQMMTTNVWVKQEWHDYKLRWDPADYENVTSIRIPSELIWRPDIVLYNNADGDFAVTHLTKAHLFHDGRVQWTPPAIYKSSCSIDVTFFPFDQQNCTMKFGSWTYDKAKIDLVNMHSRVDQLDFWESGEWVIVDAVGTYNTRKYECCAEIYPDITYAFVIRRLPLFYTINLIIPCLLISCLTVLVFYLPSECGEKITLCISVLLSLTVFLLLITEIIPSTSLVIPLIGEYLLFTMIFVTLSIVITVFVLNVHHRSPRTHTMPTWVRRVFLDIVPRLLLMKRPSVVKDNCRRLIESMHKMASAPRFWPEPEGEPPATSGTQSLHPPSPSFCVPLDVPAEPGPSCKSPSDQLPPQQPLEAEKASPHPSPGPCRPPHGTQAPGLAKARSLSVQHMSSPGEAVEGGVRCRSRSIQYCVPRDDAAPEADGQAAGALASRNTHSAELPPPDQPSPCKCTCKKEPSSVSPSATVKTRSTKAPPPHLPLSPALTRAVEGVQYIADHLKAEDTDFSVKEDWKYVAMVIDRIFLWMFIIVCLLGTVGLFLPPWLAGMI
Assay: Binding affinity to alpha4 beta-2 receptor subtype from mouse fibroblast M10 cells was measured using [3 H]nicotine
ENDPOINT LABEL: Ki
For clarity, give the value followed by its unit.

Reported Ki, molecule [N-]=[N+]=Nc1cc(C2CC3CCC2N3)cnc1Cl (stereo unspecified) [AZIDOEPIBATIDINE] : ____
0.027 nM

* * *

Biological target: Neuronal acetylcholine receptor subunit alpha-7 (Homo sapiens, UniProt P36544)
Sequence (P36544 whole entry): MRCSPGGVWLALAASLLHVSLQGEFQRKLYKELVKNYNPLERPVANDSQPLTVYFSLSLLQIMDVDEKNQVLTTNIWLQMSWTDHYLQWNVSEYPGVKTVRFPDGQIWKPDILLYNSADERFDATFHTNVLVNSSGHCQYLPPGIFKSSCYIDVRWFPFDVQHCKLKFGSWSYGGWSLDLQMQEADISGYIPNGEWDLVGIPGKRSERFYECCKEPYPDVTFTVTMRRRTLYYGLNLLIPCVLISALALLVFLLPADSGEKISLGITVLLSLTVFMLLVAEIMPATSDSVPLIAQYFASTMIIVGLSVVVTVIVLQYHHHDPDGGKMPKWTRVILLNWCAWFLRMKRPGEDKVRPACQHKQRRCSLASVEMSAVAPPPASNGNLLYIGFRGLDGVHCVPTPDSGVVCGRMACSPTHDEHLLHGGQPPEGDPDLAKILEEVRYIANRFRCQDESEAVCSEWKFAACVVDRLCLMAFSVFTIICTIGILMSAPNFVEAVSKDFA
Experiment: Binding affinity to alpha-7 receptor subtype from human neuroblastoma SH-SY5Y cells was measured using [125I]-alpha-bungarotoxin as radioligand
I'd be grateful if you could share measured Ki for these entries.
For clarity, give the value followed by its unit.

Reported Ki, molecule [N-]=[N+]=Nc1cc(C2CC3CCC2N3)cnc1Cl (configuration not stated) [AZIDOEPIBATIDINE] : ____
9.7 nM

Reported Ki, molecule Clc1ccc(C2CC3CCC2N3)cn1 (configuration not stated) [EPIBATIDINE] : ____
10.2 nM

* * *

Test: Binding affinity to Drosophila nicotinic receptor was measured using [3H]imidacloprid as radioligand
Set-up: species or system Drosophila melanogaster
I'd be grateful if you could share measured Ki for these entries.
Entry rule: numbers only, all in nM.

Reported Ki, compound [N-]=[N+]=Nc1cc(C2CC3CCC2N3)cnc1Cl (configuration not stated) [AZIDOEPIBATIDINE] : ____
2100

Reported Ki, compound Clc1ccc(C2CC3CCC2N3)cn1 (configuration not stated) [EPIBATIDINE] : ____
200
